- Test system: L1210 leukemia ip in BDF1 mice, survival T/C
- protocol-description: NCI In Vivo Anticancer Drug Screen. Data for tumor model L1210 Leukemia (intraperitoneal) in B6D2F1 (BDF1) mice
- test-parameters: endpoint: mean survival time; dose: 200.0 mg/kg/injection; schedule: Q01DX001 (ip); vehicle: saline; higher = longer survival
- Method: The antitumor activity of compounds was measured in mice bearing transplantable tumors. Survival or tumor size were measured and the results are expressed as the measurement made in the treated group (T) divided by the measurement made in the vehicle treated control group (C). The tumor model used in this assay is L1210 Leukemia (intraperitoneal) in B6D2F1 (BDF1) mice
Toxic doses and inconclusive results are not listed.

[
  {
    "molecule": "CC(C)(C)CC(N)=O",
    "T/C": "97 % of control"
  },
  {
    "molecule": "O=C(O)/C=C(\\Cl)CC(=O)O",
    "T/C": "96 % of control"
  },
  {
    "molecule": "COc1[nH]c(=O)[nH]c(=O)c1OP(=O)(OC)OC",
    "T/C": "98 % of control"
  },
  {
    "molecule": "COC1(c2ccccc2)OC12CC1CCC2C1 (centres undefined)",
    "T/C": "101 % of control"
  },
  {
    "molecule": "O=[N+]([O-])c1ccc(S(=O)(=O)F)c(Cl)c1",
    "T/C": "90 % of control"
  },
  {
    "molecule": "CC(=O)Nc1ccc2c(c1)C(c1ccccc1)=NCC(=O)N2",
    "T/C": "103 % of control"
  },
  {
    "molecule": "c1ccc(C2(c3ccccc3)c3ccc([nH]3)C(c3ccccc3)(c3ccccc3)c3ccc([nH]3)C(c3ccccc3)(c3ccccc3)c3ccc([nH]3)C(c3ccccc3)(c3ccccc3)c3ccc2[nH]3)cc1",
    "T/C": "100 % of control"
  },
  {
    "molecule": "Cc1n[nH]c(=S)nc1C",
    "T/C": "93 % of control"
  },
  {
    "molecule": "Oc1c(CN2CCOCC2)cc(CN2CCOCC2)cc1CN1CCOCC1",
    "T/C": "98 % of control"
  },
  {
    "molecule": "Oc1ccc(Cl)cc1/C=N/Nc1c2ccccc2nc2ccccc12",
    "T/C": "103 % of control"
  },
  {
    "molecule": "O=C(c1ccccc1)c1cc(CN(C2CCCCC2)C2CCCCC2)c(O)cc1O",
    "T/C": "91 % of control"
  },
  {
    "molecule": "N#CCC(N)C(=O)O (centres undefined)",
    "T/C": "96 % of control"
  },
  {
    "molecule": "CCOc1nc(OCC)c2[nH]c(C(=O)O)c(Br)c2n1",
    "T/C": "105 % of control"
  },
  {
    "molecule": "NCCSSSSCCN",
    "T/C": "105 % of control"
  },
  {
    "molecule": "NC(CS)C(=O)O (centres undefined)",
    "T/C": "92 % of control"
  },
  {
    "molecule": "CC(C)CC(N)C(=O)NCCCCCCNCCCCCCNC(=O)C(N)CC(C)C (centres undefined)",
    "T/C": "102 % of control"
  },
  {
    "molecule": "C=CCOC(=O)C1OC12CCCCC2 (centres undefined)",
    "T/C": "101 % of control"
  },
  {
    "molecule": "COCC1OC1(C(=O)c1ccccc1Cl)c1ccccc1Cl (centres undefined)",
    "T/C": "100 % of control"
  },
  {
    "molecule": "CC(=O)OC1=CC2(OC(C)=O)CCC1C1C(=O)OC(=O)C12 (centres undefined)",
    "T/C": "91 % of control"
  },
  {
    "molecule": "CC(=O)C(Cl)C(C)=O.CC(=O)C(Cl)C(C)=O.CO.CO.[Ni]",
    "T/C": "89 % of control"
  },
  {
    "molecule": "CC1(C)CCC(C)(C)C2CC3CC4C(CC3CC21)C(C)(C)CCC4(C)C (centres undefined)",
    "T/C": "104 % of control"
  },
  {
    "molecule": "CC1(C(=O)O)CCCC1C(CCC(=O)O)C(=O)O (centres undefined)",
    "T/C": "95 % of control"
  },
  {
    "molecule": "O=C1OC(=O)c2ccc([N+](=O)[O-])c3c(C(=O)O)ccc1c23",
    "T/C": "104 % of control"
  },
  {
    "molecule": "Cc1ccc(S(=O)(=O)Nc2ccc3ncccc3c2)cc1",
    "T/C": "102 % of control"
  },
  {
    "molecule": "OCC(F)(F)F",
    "T/C": "102 % of control"
  },
  {
    "molecule": "Cc1ccnc(NC(=O)Nc2ccccc2F)c1",
    "T/C": "101 % of control"
  },
  {
    "molecule": "S=P(Oc1cc(Cl)c(Cl)cc1Cl)(N1CCN(c2ccccc2)CC1)N1CCN(c2ccccc2)CC1",
    "T/C": "90 % of control"
  },
  {
    "molecule": "NC1CCCCC1Cl (centres undefined)",
    "T/C": "96 % of control"
  },
  {
    "molecule": "Cc1ccc(C(=O)C(F)(F)C(F)(F)C(F)(F)C(F)(F)C(F)(F)C(F)(F)C(F)(F)F)cc1",
    "T/C": "102 % of control"
  },
  {
    "molecule": "O=S(=O)(CC(O)(c1ccccc1)c1ccccc1)CC(O)(c1ccccc1)c1ccccc1",
    "T/C": "93 % of control"
  },
  {
    "molecule": "COC(=O)c1cc(C)cc(N(c2ccccc2N)S(=O)(=O)c2ccc(C)cc2)c1C",
    "T/C": "92 % of control"
  },
  {
    "molecule": "Nc1nc(=O)n(C2OC(CO)C(O)C2O)cc1F (centres undefined)",
    "T/C": "119 % of control"
  },
  {
    "molecule": "CCCCCCCCc1nc2c([nH]1)c(=O)n(C)c(=O)n2C",
    "T/C": "90 % of control"
  },
  {
    "molecule": "O=C1NC(=S)NC(=O)C1=Cc1ccncc1",
    "T/C": "102 % of control"
  }
]

Numbers sourced from PubChem BioAssay AID248.
